Reference source for all entries: patent US10189803B2

- EXPERIMENT SUMMARY: In vivo biodistribution of radiolabeled complexes in normal athymic mice
- SETTINGS: non-tumor bearing mice, 0.50 hr; ± SD
ENDPOINT: percent injected dose per gram, Femur (% ID/g)
Reply numerically in % ID/g, unit not repeated.

> print(dat)
                                   molecule  result.unit  experimental.value
1  O=C(O)CNC(Cc1ccc([N+](=O)[O-])cc1)CN1CCN(CC(=O)O)CCN(CC(=O)O)CC1.[90Y] (stereo not shown) [^90Y-C-NE3TA]       % ID/g                1.19

Query string: Field request: percent injected dose per gram, Femur | item: O=C(O)CNC(Cc1ccc([N+](=O)[O-])cc1)CN1CCN(CC(=O)O)CCN(CC(=O)O)CC1.[177Lu] (stereo not shown) [^177Lu-C-NE3TA]
Result string: 1.06

Query string: Another molecule: O=C([O-])CNC(Cc1ccc([N+](=O)[O-])cc1)CN1CCN(CC(=O)[O-])CCN(CC(=O)[O-])CC1.[Bi+3] (stereo not shown) [^205/6Bi-C-NE3TA]
Result string: 0.62

Query string: Please answer likewise for O=C(O)CNC(Cc1ccc([N+](=O)[O-])cc1)CN1CCN(CC(=O)O)CCN(CC(=O)O)CC1.[153Gd] (stereo not shown) [^153Gd-C-NE3TA]
Result string: 0.43

---

- EXPERIMENT SUMMARY: In vivo biodistribution of radiolabeled complexes in normal athymic mice
- SETTINGS: non-tumor bearing mice, 4.00 hr; ± SD
ENDPOINT: percent injected dose per gram, Lung (% ID/g)
# value in % ID/g; strip the unit string

Reference set, count: 3
> print(dat)
                                   molecule                              endpoint  result.unit  experimental.value
1  O=C(O)CNC(Cc1ccc([N+](=O)[O-])cc1)CN1CCN(CC(=O)O)CCN(CC(=O)O)CC1.[177Lu] (stereo not shown) [^177Lu-C-NE3TA]  percent injected dose per gram, Lung       % ID/g                0.17
2  O=C([O-])CNC(Cc1ccc([N+](=O)[O-])cc1)CN1CCN(CC(=O)[O-])CCN(CC(=O)[O-])CC1.[Bi+3] (stereo not shown) [^205/6Bi-C-NE3TA]  percent injected dose per gram, Lung       % ID/g                0.16
3  O=C(O)CNC(Cc1ccc([N+](=O)[O-])cc1)CN1CCN(CC(=O)O)CCN(CC(=O)O)CC1.[153Gd] (stereo not shown) [^153Gd-C-NE3TA]  percent injected dose per gram, Lung       % ID/g                0.03

Query string: percent injected dose per gram, Lung for O=C(O)CNC(Cc1ccc([N+](=O)[O-])cc1)CN1CCN(CC(=O)O)CCN(CC(=O)O)CC1.[90Y] (stereo not shown) [^90Y-C-NE3TA] ?
Result string: 0.10

---

- EXPERIMENT SUMMARY: In vivo biodistribution of radiolabeled complexes in normal athymic mice
- SETTINGS: non-tumor bearing mice, 8.00 hr; ± SD
The reader will find reported percent injected dose per gram, Femur values listed item by item below.
API: value field is a number in % ID/g; no unit string.

Example results:
> print(dat)
                                   compound  experimental.value
1  O=C([O-])CNC(Cc1ccc([N+](=O)[O-])cc1)CN1CCN(CC(=O)[O-])CCN(CC(=O)[O-])CC1.[Bi+3] (stereo not shown)                0.14
2  O=C(O)CNC(Cc1ccc([N+](=O)[O-])cc1)CN1CCN(CC(=O)O)CCN(CC(=O)O)CC1.[153Gd] (stereo not shown) [^153Gd-C-NE3TA]                0.02
3  O=C(O)CNC(Cc1ccc([N+](=O)[O-])cc1)CN1CCN(CC(=O)O)CCN(CC(=O)O)CC1.[90Y] (stereo not shown) [^90Y-C-NE3TA]                0.22

Could you now look at the following compound, please?
Query string: Field request: percent injected dose per gram, Femur | item: O=C(O)CNC(Cc1ccc([N+](=O)[O-])cc1)CN1CCN(CC(=O)O)CCN(CC(=O)O)CC1.[177Lu] (stereo not shown) [^177Lu-C-NE3TA]
Result string: 0.28

---

- EXPERIMENT SUMMARY: In vitro serum stability of 64Cu-labeled ligands in rat serum (radio-TLC)
- Assay type: in vitro ADME
- SETTINGS: 37° C., incubation time 24 h, n=3
- Experimental: The radiolabeling reactions of the ligands with ^64Cu were performed at elevated temperatures to ensure complete complex formation. At the no-carrier-added (NCA) level, all ligands were successfully labeled with ^64Cu in quantitative radiochemical yields (100%) as determined by radio-TLC. […] The ^64Cu-labeled complexes were freshly prepared for their serum stability evaluation, which was assessed by measuring the transfer of radionuclide from the complex to serum proteins over 24 hours or 48 hours. […]
List of Purity (serum stability, radio-TLC) values.
Reply: number alone, nothing else.

# count of solved cases: 3
> print(dat)
                                   compound  experimental.value
1  O=C(O)CN1CCN(CCN(CC(=O)O)Cc2ccccc2)CCN(CC(=O)O)CC1.[64Cu] [^64Cu-NE3TA-Bn]                 100
2  O=C(O)CN1CCN(CCO)CCN(CC(=O)O)CC1.[64Cu] [^64Cu-NBEA]                45.3
3  O=C(O)CN1CCN(CCCO)CCN(CC(=O)O)CC1.[64Cu] [^64Cu-NBPA]                70.5

Query string: Requested read-out: Purity (serum stability, radio-TLC). Entry: O=C(O)CNCCN1CCN(CC(=O)O)CCN(CC(=O)O)CC1.[64Cu] [^64Cu-NE3TA]
Result string: 100

---

- EXPERIMENT SUMMARY: In vivo biodistribution of radiolabeled complexes in normal athymic mice
- SETTINGS: non-tumor bearing mice, 8.00 hr; ± SD
Listing of recorded percent injected dose per gram, Blood by entry.
Write the answer as a number in % ID/g, unit excluded.

Query string: Look up percent injected dose per gram, Blood: O=C([O-])CNC(Cc1ccc([N+](=O)[O-])cc1)CN1CCN(CC(=O)[O-])CCN(CC(=O)[O-])CC1.[Bi+3] (stereo not shown)
Result string: 0.02

Query string: Input O=C(O)CNC(Cc1ccc([N+](=O)[O-])cc1)CN1CCN(CC(=O)O)CCN(CC(=O)O)CC1.[153Gd] (stereo not shown) [^153Gd-C-NE3TA]
Result string: 0.00

Query string: Please give the result for O=C(O)CNC(Cc1ccc([N+](=O)[O-])cc1)CN1CCN(CC(=O)O)CCN(CC(=O)O)CC1.[90Y] (stereo not shown) [^90Y-C-NE3TA] too.
Result string: 0.02

Query string: Here is the next molecule: O=C(O)CNC(Cc1ccc([N+](=O)[O-])cc1)CN1CCN(CC(=O)O)CCN(CC(=O)O)CC1.[177Lu] (stereo not shown) [^177Lu-C-NE3TA]
Result string: 0.06

---

- EXPERIMENT SUMMARY: In vivo biodistribution of radiolabeled complexes in normal athymic mice
- SETTINGS: non-tumor bearing mice, 0.50 hr; ± SD
- Method: The in vivo stability of the radiolabeled complexes was evaluated by performing biodistribution studies in normal athymic mice. Selected organs and the blood were harvested at five time points, 0.5, 1, 4, 8, and 24 h post-injection and the radioactivity measured. […] C-NE3TA radiolabeled with ^153Gd was almost completely cleared from blood, liver, spleen, lung, heart, and femur in less than 4 hours, and radioactivity level in the kidney was 0.16%±0.11 ID/g at 24 hour post-injection (Table 9). […]
ENDPOINT: percent injected dose per gram, Lung
Field: value (include unit after the number)

Reference set (3 entries):
> print(dat)
                                   compound                              endpoint  experimental.value
1  O=C([O-])CNC(Cc1ccc([N+](=O)[O-])cc1)CN1CCN(CC(=O)[O-])CCN(CC(=O)[O-])CC1.[Bi+3] (stereo not shown)  percent injected dose per gram, Lung  0.56 ± 0.13 % ID/g
2  O=C(O)CNC(Cc1ccc([N+](=O)[O-])cc1)CN1CCN(CC(=O)O)CCN(CC(=O)O)CC1.[177Lu] (stereo not shown) [^177Lu-C-NE3TA]  percent injected dose per gram, Lung  0.87 ± 0.22 % ID/g
3  O=C(O)CNC(Cc1ccc([N+](=O)[O-])cc1)CN1CCN(CC(=O)O)CCN(CC(=O)O)CC1.[153Gd] (stereo not shown) [^153Gd-C-NE3TA]  percent injected dose per gram, Lung  0.91 ± 0.28 % ID/g

Query string: percent injected dose per gram, Lung lookup needed for O=C(O)CNC(Cc1ccc([N+](=O)[O-])cc1)CN1CCN(CC(=O)O)CCN(CC(=O)O)CC1.[90Y] (stereo not shown) [^90Y-C-NE3TA] , thanks.
Result string: 1.64 ± 0.99 % ID/g
